Origin of the recorded values: ChEMBL document CHEMBL3885881

Entries and their TOTAL BILIRUBIN
- Species: Rattus norvegicus
- assay: DrugMatrix - Regimen: Daily Repeat
- Format: toxicity, organism-based, Sprague-Dawley
- Design: regimen Daily Repeat, gender Male, age 6-8 weeks
- condition description: in vivo, po, 10 mg/kg, 120 h, tissue Plasma, route oral GAVAGE, dose level Low, time 5 day, vehicle .5 % CMC
endpoint name: TOTAL BILIRUBIN (mg/dL)

[[record]]
compound = "CC(=O)O[C@]1(C(C)=O)CC[C@H]2[C@@H]3C=C(Cl)C4=CC(=O)CC[C@]4(C)[C@H]3CC[C@@]21C [CHLORMADINONE ACETATE]"
readout_units = "mg/dL"
value_observed = 0.2

[[record]]
compound = "NS(=O)(=O)c1cc2c(cc1Cl)NCNS2(=O)=O [HYDROCHLOROTHIAZIDE]"
readout_units = "mg/dL"
value_observed = 0.17

[[record]]
compound = "COc1c(C)c2c(c(O)c1C/C=C(\\C)CCC(=O)OCCN1CCOCC1)C(=O)OC2 [MYCOPHENOLATE MOFETIL]"
readout_units = "mg/dL"
value_observed = 0.1

[[record]]
compound = "O=C1CN=C(c2ccccc2)c2cc([N+](=O)[O-])ccc2N1"
readout_units = "mg/dL"
value_observed = 0.23


* * *

- Species: Rattus norvegicus
- assay: DrugMatrix - Regimen: Daily Repeat
- Type: toxicity, organism-based, Sprague-Dawley
- Parameters: regimen Daily Repeat, gender Male, age 6-8 weeks
- condition description: in vivo, po, 0 mg/kg, 120 h, tissue Plasma, route oral GAVAGE, dose level Control, time 5 day, vehicle 100 % WATER
endpoint name: CREATINE PHOSPHOKINASE (u/L)

[[record]]
compound = "Nc1ccc(S(=O)(=O)Nc2ccnn2-c2ccccc2)cc1"
readout_units = "u/L"
value_observed = 533.33

[[record]]
compound = "NCC1(CC(=O)O)CCCCC1"
readout_units = "u/L"
value_observed = 221.33

[[record]]
compound = "COc1ccc(C(CN(C)C)C2(O)CCCCC2)cc1 (stereo not given)"
readout_units = "u/L"
value_observed = 249.67

[[record]]
compound = "COc1cc2c(N3CCN(C(=O)Nc4ccc(OC(C)C)cc4)CC3)ncnc2cc1OCCCN1CCCCC1"
readout_units = "u/L"
value_observed = 383.17

[[record]]
compound = "NNC(=O)c1ccncc1"
readout_units = "u/L"
value_observed = 281.83


* * *

- Organism: Rattus norvegicus
- assay: DrugMatrix - Regimen: Daily Repeat
- Type: toxicity, organism-based, Sprague-Dawley
- Parameters: regimen Daily Repeat, gender Male, age 6-8 weeks
- condition description: in vivo, po, 0 mg/kg, 72 h, tissue Blood, route oral GAVAGE, dose level Control, time 3 day, […]
Entries and their ABSOLUTE SEGMENTED NEUTROPHIL
endpoint name: ABSOLUTE SEGMENTED NEUTROPHIL (CELLS/uL)

[[record]]
compound = "CC(C)(Oc1ccc(CCNC(=O)c2ccc(Cl)cc2)cc1)C(=O)O [BEZAFIBRATE]"
value_observed = 861.83

[[record]]
compound = "CCCC[C@@H](CC)COC(=O)c1ccccc1C(=O)OC[C@@H](CC)CCCC [BIS(2-ETHYLHEXYL)PHTHALATE]"
value_observed = 516.83

[[record]]
compound = "CN(C)CCCC1(c2ccc(F)cc2)OCc2cc(C#N)ccc21 (stereo not given) [CITALOPRAM]"
value_observed = 906

[[record]]
compound = "COCc1c(C(C)C)nc(C(C)C)c(/C=C/[C@@H](O)C[C@@H](O)CC(=O)O)c1-c1ccc(F)cc1 [CERIVASTATIN]"
value_observed = 1186.67

[[record]]
compound = "Oc1c(Cl)cc(Cl)cc1Sc1cc(Cl)cc(Cl)c1O [BITHIONOL]"
value_observed = 1521.67


* * *

- Species: Rattus norvegicus
- assay: DrugMatrix - Regimen: Daily Repeat
- Format: toxicity, organism-based, Sprague-Dawley
- Parameters: regimen Daily Repeat, gender Male, age 6-8 weeks
- condition description: in vivo, po, 1500 mg/kg, 120 h, tissue Blood, route oral GAVAGE, dose level High, time 5 day, vehicle .5 % CMC
endpoint name: PLATELET COUNT

[[record]]
compound = "COC(=O)c1ccc(O)cc1"
endpoint_name = "PLATELET COUNT"
value_observed = "1293.33 x10E3/uL"

[[record]]
compound = "CCOC(=O)[C@H](CCc1ccccc1)N[C@@H](C)C(=O)N1[C@H](C(=O)O)C[C@@H]2CCC[C@@H]21"
endpoint_name = "PLATELET COUNT"
value_observed = "1413.67 x10E3/uL"

[[record]]
compound = "O=C1CCc2cc(OCCCCc3nnnn3C3CCCCC3)ccc2N1"
endpoint_name = "PLATELET COUNT"
value_observed = "1161 x10E3/uL"

[[record]]
compound = "NS(=O)(=O)c1cc2c(cc1Cl)NCNS2(=O)=O [HYDROCHLOROTHIAZIDE]"
endpoint_name = "PLATELET COUNT"
value_observed = "1221.67 x10E3/uL"


* * *

- Species on record: Rattus norvegicus
- assay: DrugMatrix - Regimen: Daily Repeat
- Format: toxicity, organism-based, Sprague-Dawley
- Set-up: regimen Daily Repeat, gender Male, age 6-8 weeks
- condition description: in vivo, po, 1500 mg/kg, 72 h, tissue Blood, route oral GAVAGE, dose level High, time 3 day, vehicle .5 % CMC
endpoint name: HEMOGLOBIN (G/DL)

[[record]]
molecule = "NS(=O)(=O)c1cc2c(cc1Cl)NCNS2(=O)=O [HYDROCHLOROTHIAZIDE]"
readout_units = "G/DL"
value_observed = 13.93

[[record]]
molecule = "O=C1CCc2cc(OCCCCc3nnnn3C3CCCCC3)ccc2N1"
readout_units = "G/DL"
value_observed = 14.2

[[record]]
molecule = "CCOC(=O)[C@H](CCc1ccccc1)N[C@@H](C)C(=O)N1[C@H](C(=O)O)C[C@@H]2CCC[C@@H]21"
readout_units = "G/DL"
value_observed = 13.77

[[record]]
molecule = "COC(=O)c1ccc(O)cc1"
readout_units = "G/DL"
value_observed = 13.37


* * *

- Species on record: Rattus norvegicus
- assay: DrugMatrix - Regimen: Daily Repeat
- Type: toxicity, organism-based, Sprague-Dawley
- Parameters: regimen Daily Repeat, gender Male, age 6-8 weeks
- condition description: in vivo, po, 0 mg/kg, 120 h, tissue Plasma, route oral GAVAGE, dose level Control, time 5 day, vehicle .5 % CMC
Entries and their TOTAL BILIRUBIN
endpoint name: TOTAL BILIRUBIN

[[record]]
compound = "CC[C@H]1OC(=O)[C@H](C)[C@@H](O[C@H]2C[C@@](C)(OC)[C@@H](O)[C@H](C)O2)[C@H](C)[C@@H](O[C@@H]2O[C@H](C)C[C@H](N(C)C)[C@H]2O)[C@](C)(O)C[C@@H](C)/C(=N\\OCOCCOC)[C@H](C)[C@@H](O)[C@]1(C)O [ROXITHROMYCIN]"
endpoint_name = "TOTAL BILIRUBIN"
value_observed = "0.53 mg/dL"

[[record]]
compound = "CCc1cccc2c3c([nH]c12)C(CC)(CC(=O)O)OCC3 (stereo not drawn) [ETODOLAC]"
endpoint_name = "TOTAL BILIRUBIN"
value_observed = "0.53 mg/dL"

[[record]]
compound = "CCOC(=O)OC(C)OC1=C(C(=O)Nc2ccccn2)N(C)S(=O)(=O)c2ccccc21 (stereo not drawn) [AMPIROXICAM]"
endpoint_name = "TOTAL BILIRUBIN"
value_observed = "0.13 mg/dL"


* * *

- Species: Rattus norvegicus
- assay: DrugMatrix - Regimen: Daily Repeat
- Format: toxicity, organism-based, Sprague-Dawley
- Parameters: regimen Daily Repeat, gender Male, age 6-8 weeks
- condition description: in vivo, po, 0 mg/kg, 120 h, tissue Plasma, route oral GAVAGE, dose level Control, time 5 day, vehicle .5 % CMC
endpoint name: GLUCOSE (mg/dL)

[[record]]
compound = "Brc1ccccc1 [BROMOBENZENE]"
endpoint_name = "GLUCOSE"
readout_units = "mg/dL"
value_observed = 172

[[record]]
compound = "CC1(C)[C@H]2CC[C@]1(C)C(=O)C2 [(-)-CAMPHOR]"
endpoint_name = "GLUCOSE"
readout_units = "mg/dL"
value_observed = 168.83

[[record]]
compound = "O=C1CCc2cc(OCCCCc3nnnn3C3CCCCC3)ccc2N1 [CILOSTAZOL]"
endpoint_name = "GLUCOSE"
readout_units = "mg/dL"
value_observed = 177.17

[[record]]
compound = "CCc1ccc(C(=O)C(C)CN2CCCCC2)cc1 (stereo not given) [EPERISONE]"
endpoint_name = "GLUCOSE"
readout_units = "mg/dL"
value_observed = 161.67

[[record]]
compound = "COc1c(C)c2c(c(O)c1C/C=C(\\C)CCC(=O)OCCN1CCOCC1)C(=O)OC2 [MYCOPHENOLATE MOFETIL]"
endpoint_name = "GLUCOSE"
readout_units = "mg/dL"
value_observed = 177.83

[[record]]
compound = "CCC[C@@H]1C[C@@H](C(=O)N[C@@H]([C@H]2O[C@H](SC)[C@H](O)[C@@H](O)[C@H]2O)[C@@H](C)O)N(C)C1 [LINCOMYCIN]"
endpoint_name = "GLUCOSE"
readout_units = "mg/dL"
value_observed = 141.83

[[record]]
compound = "CCc1cccc2c3c([nH]c12)C(CC)(CC(=O)O)OCC3 (stereo not given) [ETODOLAC]"
endpoint_name = "GLUCOSE"
readout_units = "mg/dL"
value_observed = 196.83

[[record]]
compound = "NCC(=O)O [GLYCINE]"
endpoint_name = "GLUCOSE"
readout_units = "mg/dL"
value_observed = 163.33

[[record]]
compound = "CCOC(=O)OC(C)OC1=C(C(=O)Nc2ccccn2)N(C)S(=O)(=O)c2ccccc21 (stereo not given) [AMPIROXICAM]"
endpoint_name = "GLUCOSE"
readout_units = "mg/dL"
value_observed = 172

[[record]]
compound = "O=c1[nH]cc(F)c(=O)[nH]1 [FLUOROURACIL]"
endpoint_name = "GLUCOSE"
readout_units = "mg/dL"
value_observed = 152.33

